For each entry below, report its Fold reduction in Imipenem MIC in the presence of compounds (μg/mL) 4 value.
- System: Klebsiella pneumoniae ATCC BAA-2146
- protocolSummary: Checkerboard synergy assay in combination with Imipenem
- Type: cell-based
- conditionDescription: compound at 4 μg/mL; K. pneumoniae ATCC BAA-2146
Answer with a number only, understood to be in fold.

So what does the record say about Fold reduction in Imipenem MIC in the presence of compounds (μg/mL) 4 for COc1cc(OC)cc(-c2c(C(=O)O)[nH]c3c2CCc2ccccc2-3)c1 [Example 61] ? 4

I have this molecule here, COc1cc(Cl)cc(-c2c(C(=O)O)[nH]c3c2CCc2ccccc2-3)c1 [Example 59] , and I need its recorded Fold reduction in Imipenem MIC in the presence of compounds (μg/mL) 4. 4

Data request, read-out Fold reduction in Imipenem MIC in the presence of compounds (μg/mL) 4, for CC1Cc2c([nH]c(C(=O)O)c2-c2cc(F)cc(Cl)c2)-c2ccccc21 (stereo not drawn) [Example 64] 4

For the molecule shown here, COc1ccc(-c2c(C(=O)O)[nH]c3c2CCc2ccccc2-3)cc1 [Example 36] , give the reported Fold reduction in Imipenem MIC in the presence of compounds (μg/mL) 4. 2

Consider the molecule shown here: O=C(O)c1[nH]c2c(c1-c1ccccc1F)CCc1ccccc1-2 [Example 41] What is its recorded Fold reduction in Imipenem MIC in the presence of compounds (μg/mL) 4? 4

Tell me the measured Fold reduction in Imipenem MIC in the presence of compounds (μg/mL) 4 of Cc1cc(C)cc(-c2c(C(=O)O)[nH]c3c2CCc2ccccc2-3)c1 [Example 48] , please. 4

Fill in: Fold reduction in Imipenem MIC in the presence of compounds (μg/mL) 4 of O=C(O)c1[nH]c2c(c1-c1ccc(Cl)cc1)CCc1ccccc1-2 [Example 43] is ___ 4

Data request, read-out Fold reduction in Imipenem MIC in the presence of compounds (μg/mL) 4, for O=C(O)c1[nH]c2c(c1-c1cncc(F)c1)CCc1ccccc1-2 [Example 53] 4

For the molecule shown here, O=C(O)c1[nH]c2c(c1-c1cccc(Cl)c1)CCc1ccccc1-2 [Example 45] , give the reported Fold reduction in Imipenem MIC in the presence of compounds (μg/mL) 4. 2
